Measured EC50 of individual entries
System: Mytilus galloprovincialis plantigrade larvae
Experiment: M. galloprovincialis larvae anti-settlement bioassay
Format: in vivo
Conditions: dose-response, read-out: EC50 (concentration that inhibited 50% of larval settlement)
Protocol: The 19 xanthone derivatives were screened for anti-settlement activity toward M. galloprovincialis plantigrade larvae. […] After exposure, the anti-settlement bioactivity was determined by the observation of efficiently attached plantigrade larvae considering the existence/absence of produced byssal threads for each test condition. […]

Compound	EC50
O=c1c2ccccc2oc2c(O)cccc12 [Compound 4, 4-hydroxy-]	4.55 µg/mL
CCCOc1ccc(NCCc2ccc3c(c2)OCO3)c2c(=O)c3ccccc3sc12 [Compound 15, 1-[11]-4-propoxy-9H-thioxanthen-9-one]	12.4 µg/mL
CCCOc1ccc(N2CCCCC2)c2c(=O)c3ccccc3sc12	1.25 µg/mL
O=c1c2ccccc2oc2c(O)c(O)ccc12 [Compound 7, 3,4-dihydroxy-]	2.63 µg/mL
CC1(C)CCc2cc3c(=O)c4ccccc4oc3c(O)c2O1	1.36 µg/mL
O=c1c2ccccc2oc2ccc(O)c(O)c12 [Compound 5, 1,2-dihydroxy-]	3.52 µg/mL
